Molecular target: Phosphatidylinositol 4,5-bisphosphate 3-kinase catalytic subunit gamma isoform (Homo sapiens, UniProt P48736)
Sequence (P48736 whole entry, canonical isoform): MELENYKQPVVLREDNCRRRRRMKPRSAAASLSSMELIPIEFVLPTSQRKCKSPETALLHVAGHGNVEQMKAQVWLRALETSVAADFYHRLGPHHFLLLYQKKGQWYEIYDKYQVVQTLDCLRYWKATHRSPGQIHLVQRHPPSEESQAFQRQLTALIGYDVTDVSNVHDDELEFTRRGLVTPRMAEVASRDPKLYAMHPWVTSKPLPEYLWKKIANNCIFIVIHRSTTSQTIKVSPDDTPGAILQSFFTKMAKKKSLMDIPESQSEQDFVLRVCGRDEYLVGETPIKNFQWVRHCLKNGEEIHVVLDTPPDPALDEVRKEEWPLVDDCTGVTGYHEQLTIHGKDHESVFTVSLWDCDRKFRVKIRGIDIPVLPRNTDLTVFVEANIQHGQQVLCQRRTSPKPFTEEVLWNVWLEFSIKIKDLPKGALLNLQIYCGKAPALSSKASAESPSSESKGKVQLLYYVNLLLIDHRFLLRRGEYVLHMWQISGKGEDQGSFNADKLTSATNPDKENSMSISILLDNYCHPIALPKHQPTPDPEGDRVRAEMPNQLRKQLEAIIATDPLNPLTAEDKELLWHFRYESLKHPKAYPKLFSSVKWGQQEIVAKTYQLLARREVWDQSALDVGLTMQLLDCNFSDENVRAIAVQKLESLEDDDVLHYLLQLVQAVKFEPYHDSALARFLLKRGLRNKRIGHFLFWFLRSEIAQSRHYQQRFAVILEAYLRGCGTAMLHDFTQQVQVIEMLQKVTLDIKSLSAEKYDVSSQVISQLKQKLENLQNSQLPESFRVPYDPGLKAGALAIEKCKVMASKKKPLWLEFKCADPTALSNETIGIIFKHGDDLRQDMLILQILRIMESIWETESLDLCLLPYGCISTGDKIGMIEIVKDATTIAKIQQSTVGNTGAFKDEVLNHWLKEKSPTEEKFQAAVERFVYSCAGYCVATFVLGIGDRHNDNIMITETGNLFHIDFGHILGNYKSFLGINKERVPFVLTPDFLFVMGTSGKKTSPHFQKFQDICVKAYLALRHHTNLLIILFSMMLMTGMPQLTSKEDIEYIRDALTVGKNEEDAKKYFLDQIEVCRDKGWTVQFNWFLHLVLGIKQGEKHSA
Assay: Inhibition of recombinant human PI3Kgamma by TR-FRET analysis
experimental endpoint: IC50

Query: Tell me IC50 reported for C[C@@H]1COCCN1c1cc(=O)n2c(n1)N(Cc1cncc(Cl)c1)[C@H](C(F)(F)F)CC2
Response: > 10 µM

====

Target: Amine oxidase [flavin-containing] A (Homo sapiens)
Sequence (P21397 whole entry): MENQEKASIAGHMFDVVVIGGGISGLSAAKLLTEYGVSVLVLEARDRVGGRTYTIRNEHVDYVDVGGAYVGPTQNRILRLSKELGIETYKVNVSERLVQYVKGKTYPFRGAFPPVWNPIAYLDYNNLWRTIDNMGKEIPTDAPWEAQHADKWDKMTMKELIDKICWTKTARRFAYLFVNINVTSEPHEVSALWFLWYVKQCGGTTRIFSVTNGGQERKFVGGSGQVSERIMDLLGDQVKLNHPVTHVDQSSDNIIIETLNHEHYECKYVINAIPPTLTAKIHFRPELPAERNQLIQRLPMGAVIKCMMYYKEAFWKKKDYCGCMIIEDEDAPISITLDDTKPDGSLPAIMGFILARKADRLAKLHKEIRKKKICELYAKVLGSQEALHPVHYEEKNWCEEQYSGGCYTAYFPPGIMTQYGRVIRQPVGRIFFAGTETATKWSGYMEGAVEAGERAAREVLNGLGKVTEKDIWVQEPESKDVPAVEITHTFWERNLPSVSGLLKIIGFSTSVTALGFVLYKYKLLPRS
Test: Inhibition of MAO-A (unknown origin)
experimental endpoint: IC50

Query: Answer briefly: IC50 recorded on Amine oxidase [flavin-containing] A (Homo sapiens) for O=C(N[C@@H](CCCCNC1CC1c1ccccc1)C(=O)NCc1ccccc1)c1ccccc1 (stereo partly specified)
Response: > 25 µM

====

The following molecules have recorded IC50 on UniProtKB Q9UQL6.
Sequence (Q9UQL6 whole entry): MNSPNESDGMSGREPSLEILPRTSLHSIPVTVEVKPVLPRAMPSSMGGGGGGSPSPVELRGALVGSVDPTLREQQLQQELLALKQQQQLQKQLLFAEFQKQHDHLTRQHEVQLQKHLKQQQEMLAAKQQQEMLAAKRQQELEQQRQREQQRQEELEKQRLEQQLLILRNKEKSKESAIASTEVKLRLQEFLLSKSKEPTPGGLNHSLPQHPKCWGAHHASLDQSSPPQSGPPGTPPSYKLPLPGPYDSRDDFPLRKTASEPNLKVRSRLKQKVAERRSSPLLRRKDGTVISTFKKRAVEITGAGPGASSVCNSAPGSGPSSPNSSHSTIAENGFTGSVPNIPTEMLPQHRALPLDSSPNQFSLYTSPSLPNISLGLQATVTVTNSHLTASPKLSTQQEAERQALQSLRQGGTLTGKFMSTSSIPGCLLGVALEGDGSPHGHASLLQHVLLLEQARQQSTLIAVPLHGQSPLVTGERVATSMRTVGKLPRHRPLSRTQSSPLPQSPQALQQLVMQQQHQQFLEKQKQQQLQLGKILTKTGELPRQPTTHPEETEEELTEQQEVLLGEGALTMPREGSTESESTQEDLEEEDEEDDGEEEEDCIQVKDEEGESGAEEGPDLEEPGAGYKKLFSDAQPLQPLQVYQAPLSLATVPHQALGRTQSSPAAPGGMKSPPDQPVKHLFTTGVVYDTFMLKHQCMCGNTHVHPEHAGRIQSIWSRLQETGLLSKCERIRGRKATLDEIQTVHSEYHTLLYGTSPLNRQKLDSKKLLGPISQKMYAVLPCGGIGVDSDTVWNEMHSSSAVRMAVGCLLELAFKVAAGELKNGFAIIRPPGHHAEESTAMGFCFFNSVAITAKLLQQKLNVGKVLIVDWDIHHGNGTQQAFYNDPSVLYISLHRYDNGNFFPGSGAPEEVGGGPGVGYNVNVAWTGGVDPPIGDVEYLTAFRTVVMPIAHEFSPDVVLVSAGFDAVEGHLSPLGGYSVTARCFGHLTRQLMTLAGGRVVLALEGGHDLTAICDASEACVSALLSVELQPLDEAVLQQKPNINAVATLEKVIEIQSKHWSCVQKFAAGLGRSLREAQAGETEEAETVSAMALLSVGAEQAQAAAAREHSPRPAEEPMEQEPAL

Nc1ccccc1NC(=O)c1ccc(-c2cn(CCc3cccc([N+](=O)[O-])c3)nn2)s1: > 100 µM

Query: Tell me measured IC50 for Nc1ccccc1NC(=O)c1ccc(-c2cn(CCc3ccsc3)nn2)cc1 please.
Response: > 100 µM

====

Heads up, these molecules all have pIC50 values measured for Amine oxidase [flavin-containing] A (Homo sapiens).
Answers are plain numbers, as −log10 of the molar value.

N[C@@H]1C[C@H]1c1ccc(OCC[C@H](NC(=O)c2ccccc2)C(=O)NCc2ccccc2)cc1: 3.54

// next entry
Query: Supply reported pIC50 belonging to this molecule: NC1CC1c1cccc(OCC[C@H](NC(=O)c2ccccc2)C(=O)NCc2ccccc2)c1 (some centres not stated)
Response: 3.64

====

Biological target: Phosphatidylinositol 4,5-bisphosphate 3-kinase catalytic subunit delta isoform (Homo sapiens, UniProt O00329)
Sequence (O00329 whole entry, canonical isoform): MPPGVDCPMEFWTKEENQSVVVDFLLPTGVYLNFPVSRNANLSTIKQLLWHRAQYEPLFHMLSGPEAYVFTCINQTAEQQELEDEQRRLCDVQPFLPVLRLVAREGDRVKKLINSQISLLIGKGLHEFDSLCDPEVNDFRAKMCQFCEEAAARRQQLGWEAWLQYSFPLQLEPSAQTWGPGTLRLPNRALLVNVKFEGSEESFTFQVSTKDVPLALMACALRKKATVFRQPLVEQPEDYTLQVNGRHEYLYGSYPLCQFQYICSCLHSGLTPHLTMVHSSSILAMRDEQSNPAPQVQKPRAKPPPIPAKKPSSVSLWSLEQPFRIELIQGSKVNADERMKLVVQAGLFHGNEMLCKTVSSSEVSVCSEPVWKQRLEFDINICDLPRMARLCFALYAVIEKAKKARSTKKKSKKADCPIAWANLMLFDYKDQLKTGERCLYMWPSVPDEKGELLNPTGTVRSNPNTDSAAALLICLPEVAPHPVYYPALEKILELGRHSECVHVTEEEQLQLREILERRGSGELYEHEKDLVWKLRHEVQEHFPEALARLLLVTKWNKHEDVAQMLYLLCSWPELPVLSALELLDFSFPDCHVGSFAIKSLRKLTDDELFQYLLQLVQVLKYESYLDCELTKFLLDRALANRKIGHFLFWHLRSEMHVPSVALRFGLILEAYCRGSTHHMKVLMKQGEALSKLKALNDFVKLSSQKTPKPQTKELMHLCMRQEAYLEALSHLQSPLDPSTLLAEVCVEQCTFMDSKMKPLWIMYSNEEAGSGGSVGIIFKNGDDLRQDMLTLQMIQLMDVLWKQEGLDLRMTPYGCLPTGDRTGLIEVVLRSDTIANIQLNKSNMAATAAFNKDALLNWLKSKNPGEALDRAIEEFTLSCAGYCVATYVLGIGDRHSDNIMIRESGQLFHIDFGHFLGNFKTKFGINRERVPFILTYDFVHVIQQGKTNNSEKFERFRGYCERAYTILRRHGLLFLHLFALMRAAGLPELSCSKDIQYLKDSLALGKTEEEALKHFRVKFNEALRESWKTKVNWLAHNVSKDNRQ
Assay: Inhibition of recombinant human PI3Kdelta by TR-FRET analysis
experimental endpoint: IC50

Query: Tell me its IC50 given C[C@@H]1COCCN1c1cc(=O)n2c(n1)N(Cc1cncc(Cl)c1)[C@H](C(F)(F)F)CC2 as the entry.
Response: > 10 µM
